Origin of values: patent US20260364182A1

# Tested on: SARS-CoV-2
# methodSummary: Antiviral assay in infected Vero E6 cells (ATP quantification, Cell Titer Glo)
# assayContext: Severe acute respiratory syndrome coronavirus 2, Vero C1008, 72 h, read-out: Antiviral Activity, 10 uM (cell viability assay), 10 uM; Vero E6 cells, MOI 0.05, 72 h
measuredQuantity: inhibition at 10 µM

C[C@H](c1cccc2ccccc12)N1CCC(C(=O)NCc2cc(F)cc(NC(=O)N3CCN(CCCCNC(=O)COc4ccc(C5CCC(=O)NC5=O)cc4)CC3)c2)CC1 (stereo partly drawn) [TS526]
< 0%
C[C@H](c1cccc2ccccc12)N1CCC(C(=O)NCc2cc(F)cc(NC(=O)N3CCN(CCCCCCOc4ccc5c(c4)C(=O)N(C4CCC(=O)NC4=O)C5=O)CC3)c2)CC1 (stereo partly drawn) [TS534]
< 25%

Next compound, inhibition at 10 µM to be filled in.
*Q* Let me know recorded inhibition at 10 µM for Cc1ccc(NC(=O)CCOCCOCCOCCOCCNc2cccc3c2C(=O)N(C2CCC(=O)NC2=O)C3=O)cc1C(=O)N[C@H](C)c1cccc2ccccc12 (stereo partly drawn) [TS129] , thanks.
*A* < 0%
